- procedure_text: Volume of distribution was determined
- Format: ADME, organism-based
- stated_conditions: rat, in vivo

| input_smiles | Vd / L/kg |
| --- | --- |
| Cc1c[nH]c(-c2nnn(-c3cc(F)cc(C#N)c3)n2)n1 | 0.6 |

----------
- target_system: Metabotropic glutamate receptor 5 (Rattus norvegicus) (UniProt P31424)
- Sequence (P31424 21-1203 limits assumed): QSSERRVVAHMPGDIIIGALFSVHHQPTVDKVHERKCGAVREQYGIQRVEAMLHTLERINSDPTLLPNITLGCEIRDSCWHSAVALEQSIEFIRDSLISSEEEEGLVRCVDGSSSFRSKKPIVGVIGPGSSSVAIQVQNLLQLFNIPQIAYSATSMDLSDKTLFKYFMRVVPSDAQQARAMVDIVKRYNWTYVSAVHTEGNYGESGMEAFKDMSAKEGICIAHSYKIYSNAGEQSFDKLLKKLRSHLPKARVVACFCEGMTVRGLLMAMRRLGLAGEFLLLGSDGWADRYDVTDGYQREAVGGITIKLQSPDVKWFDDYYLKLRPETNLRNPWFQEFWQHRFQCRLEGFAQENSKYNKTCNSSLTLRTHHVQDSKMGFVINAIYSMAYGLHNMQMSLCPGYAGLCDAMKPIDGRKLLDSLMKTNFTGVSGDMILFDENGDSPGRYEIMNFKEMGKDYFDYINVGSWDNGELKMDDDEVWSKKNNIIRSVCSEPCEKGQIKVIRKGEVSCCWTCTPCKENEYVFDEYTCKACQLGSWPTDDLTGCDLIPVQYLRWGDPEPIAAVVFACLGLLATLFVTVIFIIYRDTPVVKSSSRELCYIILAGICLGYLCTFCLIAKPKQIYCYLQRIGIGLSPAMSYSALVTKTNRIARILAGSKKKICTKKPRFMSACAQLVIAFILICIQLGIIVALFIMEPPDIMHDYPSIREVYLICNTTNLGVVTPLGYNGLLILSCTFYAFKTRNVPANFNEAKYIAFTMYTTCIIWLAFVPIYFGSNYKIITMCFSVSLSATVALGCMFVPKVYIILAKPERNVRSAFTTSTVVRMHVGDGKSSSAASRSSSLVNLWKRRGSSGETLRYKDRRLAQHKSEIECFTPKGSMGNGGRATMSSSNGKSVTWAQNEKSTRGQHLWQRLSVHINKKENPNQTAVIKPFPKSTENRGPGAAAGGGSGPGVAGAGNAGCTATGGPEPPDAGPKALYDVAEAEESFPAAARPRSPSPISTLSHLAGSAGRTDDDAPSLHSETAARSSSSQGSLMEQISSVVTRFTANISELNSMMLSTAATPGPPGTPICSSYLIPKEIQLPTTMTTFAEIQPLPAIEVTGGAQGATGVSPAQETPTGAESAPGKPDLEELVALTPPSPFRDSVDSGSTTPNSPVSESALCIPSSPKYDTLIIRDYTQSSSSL
- procedure_text: Antagonistic activity against Metabotropic glutamate receptor 5 in [Ca2+] flux assay using glutamate (10 uM) as agonist
- Assay type: functional
readout_type: log10 Activity (log10 of the value in nM)

| input_smiles | readout_type | measured_value |
| --- | --- | --- |
| N#Cc1cccc(-n2nnc(-c3ccccn3)n2)c1 | log10 Activity | 1.86 |
| Cc1ccncc1-c1cc(F)cc(-n2nnc(-c3ncc[nH]3)n2)c1 | log10 Activity | 1.30 |
| N#Cc1cc(F)cc(-n2nnc(-c3ccccn3)n2)c1 | log10 Activity | 0.59 |
| N#Cc1cccc(-n2nnc(-c3cscn3)n2)c1 | log10 Activity | 2.17 |
| Cc1c[nH]c(-c2nnn(-c3cc(F)cc(C#N)c3)n2)n1 | log10 Activity | 1.89 |
| Fc1cc(Oc2cccnc2)cc(-n2nnc(-c3ncc[nH]3)n2)c1 | log10 Activity | 0.99 |
| N#Cc1cccc(-n2nnc(-c3nccs3)n2)c1 | log10 Activity | 2.15 |
| N#Cc1cc(F)cc(-n2nnc(-c3ncc[nH]3)n2)c1 | log10 Activity | 1.67 |
| N#Cc1cccc(-n2nnc(-c3ncc[nH]3)n2)c1 | log10 Activity | 1.89 |
| Cc1ccncc1-c1cc(F)cc(-n2nnc(-c3ccccn3)n2)c1 | log10 Activity | 0.72 |
| Fc1cc(Oc2cccnc2)cc(-n2nnc(-c3ccccn3)n2)c1 | log10 Activity | 0.83 |

The measurements presented in this section are drawn from ChEMBL document CHEMBL1138010.
